Please go through the items and note down their pIC50.
study_target: T-type calcium channel (Homo sapiens)
test_description: T-type channel blocking, FLIPR data (Table 6)
Assay type: cell-based
condition_set: CAv3.2, inactivated state, read-out: CAv3.2 IC50 Inact.
Give bare numbers, as −log10 of the molar value.

Here is how some molecules turned out for pIC50.
molecule	experimental_result
CC(C)([C@H]1C[C@@H](NS(=O)(=O)c2ccc(C(F)(F)F)cc2Cl)C1)S(=O)(=O)c1cc(F)cc(C(F)(F)F)c1 [Compound 622]	5.35
CNC1(CC(=O)N[C@H]2C[C@H](C(C)(C)S(=O)(=O)c3cc(F)cc(C(F)(F)F)c3)C2)CCCCC1 [Compound 659]	5.00
CC(C)([C@H]1C[C@H](NC(=O)c2ccc(Cl)c(F)c2)C1)S(=O)(=O)c1cccc(OC(F)(F)F)c1 [Compound 633]	6.24

Provide pIC50 values for the following items, in order.
1. CC(C)([C@H]1C[C@H](NC(=O)c2ccc(C(F)(F)F)cc2S(C)(=O)=O)C1)S(=O)(=O)c1cc(F)cc(C(F)(F)F)c1 [Compound 592]
2. Cn1nc(C(F)(F)F)cc1C(=O)N[C@H]1C[C@@H](CC(C)(C)S(=O)(=O)c2cccc(C(F)(F)F)c2)C1 [Compound 738]
3. CC(C)([C@H]1C[C@@H](NC(=O)CC2(N)CCCCC2)C1)S(=O)(=O)c1cc(F)cc(C(F)(F)F)c1 [Compound 653]

Reply:
5.00
6.28
5.00

----------
study_target: CAv1.2 (Homo sapiens, UniProt Q13936)
Sequence (Q13936 whole entry): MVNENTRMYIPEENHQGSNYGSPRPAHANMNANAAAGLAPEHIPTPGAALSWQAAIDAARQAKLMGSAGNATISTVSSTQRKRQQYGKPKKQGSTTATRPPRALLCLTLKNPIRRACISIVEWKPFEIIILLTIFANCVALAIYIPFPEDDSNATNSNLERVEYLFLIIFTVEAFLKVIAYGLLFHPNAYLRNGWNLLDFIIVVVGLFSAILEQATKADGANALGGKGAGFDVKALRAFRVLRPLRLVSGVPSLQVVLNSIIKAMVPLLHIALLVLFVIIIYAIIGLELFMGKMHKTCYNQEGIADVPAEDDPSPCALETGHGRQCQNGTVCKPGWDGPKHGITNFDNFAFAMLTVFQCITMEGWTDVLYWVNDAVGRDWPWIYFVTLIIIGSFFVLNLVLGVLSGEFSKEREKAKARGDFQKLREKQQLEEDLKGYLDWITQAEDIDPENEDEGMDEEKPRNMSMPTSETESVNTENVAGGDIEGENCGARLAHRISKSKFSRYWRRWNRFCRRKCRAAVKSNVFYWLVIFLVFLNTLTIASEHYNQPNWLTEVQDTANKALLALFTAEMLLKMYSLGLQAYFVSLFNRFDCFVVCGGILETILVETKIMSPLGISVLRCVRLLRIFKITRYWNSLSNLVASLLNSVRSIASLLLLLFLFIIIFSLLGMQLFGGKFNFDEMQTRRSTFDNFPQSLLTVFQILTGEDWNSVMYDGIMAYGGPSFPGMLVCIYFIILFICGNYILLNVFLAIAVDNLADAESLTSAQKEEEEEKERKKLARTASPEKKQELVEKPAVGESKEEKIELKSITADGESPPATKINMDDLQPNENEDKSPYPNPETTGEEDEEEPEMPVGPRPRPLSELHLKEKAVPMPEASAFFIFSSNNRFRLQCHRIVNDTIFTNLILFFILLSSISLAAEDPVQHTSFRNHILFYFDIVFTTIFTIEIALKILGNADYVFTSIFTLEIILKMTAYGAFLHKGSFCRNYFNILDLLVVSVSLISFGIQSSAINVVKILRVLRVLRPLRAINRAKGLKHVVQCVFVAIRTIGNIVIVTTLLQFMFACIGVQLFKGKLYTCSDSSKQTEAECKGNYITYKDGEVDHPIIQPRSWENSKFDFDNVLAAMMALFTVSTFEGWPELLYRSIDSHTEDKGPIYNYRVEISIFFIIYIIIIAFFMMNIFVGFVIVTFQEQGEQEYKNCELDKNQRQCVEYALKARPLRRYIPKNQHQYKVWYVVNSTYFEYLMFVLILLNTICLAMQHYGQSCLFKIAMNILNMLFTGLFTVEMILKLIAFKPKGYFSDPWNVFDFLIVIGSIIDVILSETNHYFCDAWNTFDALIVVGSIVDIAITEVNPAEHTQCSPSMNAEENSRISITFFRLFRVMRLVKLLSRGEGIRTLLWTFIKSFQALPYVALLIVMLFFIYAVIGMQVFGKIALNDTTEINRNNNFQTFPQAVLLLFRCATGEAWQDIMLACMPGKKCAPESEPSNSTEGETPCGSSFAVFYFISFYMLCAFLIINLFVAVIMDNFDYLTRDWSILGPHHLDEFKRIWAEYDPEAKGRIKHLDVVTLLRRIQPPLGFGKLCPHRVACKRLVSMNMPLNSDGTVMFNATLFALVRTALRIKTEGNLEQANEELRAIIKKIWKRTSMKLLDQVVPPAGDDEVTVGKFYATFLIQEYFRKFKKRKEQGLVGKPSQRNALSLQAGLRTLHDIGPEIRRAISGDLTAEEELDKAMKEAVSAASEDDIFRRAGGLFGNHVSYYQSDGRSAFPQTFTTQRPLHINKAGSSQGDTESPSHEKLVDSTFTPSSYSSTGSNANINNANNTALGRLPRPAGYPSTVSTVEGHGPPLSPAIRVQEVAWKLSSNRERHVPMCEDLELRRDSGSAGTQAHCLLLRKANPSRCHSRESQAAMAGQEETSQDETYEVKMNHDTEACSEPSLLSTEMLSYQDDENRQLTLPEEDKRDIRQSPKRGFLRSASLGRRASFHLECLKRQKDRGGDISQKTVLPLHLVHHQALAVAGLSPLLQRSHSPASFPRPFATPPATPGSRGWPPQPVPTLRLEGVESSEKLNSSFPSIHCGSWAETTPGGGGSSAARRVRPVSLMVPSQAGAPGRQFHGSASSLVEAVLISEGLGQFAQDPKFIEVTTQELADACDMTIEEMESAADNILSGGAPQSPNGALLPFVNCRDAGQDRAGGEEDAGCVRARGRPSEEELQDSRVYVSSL
Sequence (P54289 25-1103 partner): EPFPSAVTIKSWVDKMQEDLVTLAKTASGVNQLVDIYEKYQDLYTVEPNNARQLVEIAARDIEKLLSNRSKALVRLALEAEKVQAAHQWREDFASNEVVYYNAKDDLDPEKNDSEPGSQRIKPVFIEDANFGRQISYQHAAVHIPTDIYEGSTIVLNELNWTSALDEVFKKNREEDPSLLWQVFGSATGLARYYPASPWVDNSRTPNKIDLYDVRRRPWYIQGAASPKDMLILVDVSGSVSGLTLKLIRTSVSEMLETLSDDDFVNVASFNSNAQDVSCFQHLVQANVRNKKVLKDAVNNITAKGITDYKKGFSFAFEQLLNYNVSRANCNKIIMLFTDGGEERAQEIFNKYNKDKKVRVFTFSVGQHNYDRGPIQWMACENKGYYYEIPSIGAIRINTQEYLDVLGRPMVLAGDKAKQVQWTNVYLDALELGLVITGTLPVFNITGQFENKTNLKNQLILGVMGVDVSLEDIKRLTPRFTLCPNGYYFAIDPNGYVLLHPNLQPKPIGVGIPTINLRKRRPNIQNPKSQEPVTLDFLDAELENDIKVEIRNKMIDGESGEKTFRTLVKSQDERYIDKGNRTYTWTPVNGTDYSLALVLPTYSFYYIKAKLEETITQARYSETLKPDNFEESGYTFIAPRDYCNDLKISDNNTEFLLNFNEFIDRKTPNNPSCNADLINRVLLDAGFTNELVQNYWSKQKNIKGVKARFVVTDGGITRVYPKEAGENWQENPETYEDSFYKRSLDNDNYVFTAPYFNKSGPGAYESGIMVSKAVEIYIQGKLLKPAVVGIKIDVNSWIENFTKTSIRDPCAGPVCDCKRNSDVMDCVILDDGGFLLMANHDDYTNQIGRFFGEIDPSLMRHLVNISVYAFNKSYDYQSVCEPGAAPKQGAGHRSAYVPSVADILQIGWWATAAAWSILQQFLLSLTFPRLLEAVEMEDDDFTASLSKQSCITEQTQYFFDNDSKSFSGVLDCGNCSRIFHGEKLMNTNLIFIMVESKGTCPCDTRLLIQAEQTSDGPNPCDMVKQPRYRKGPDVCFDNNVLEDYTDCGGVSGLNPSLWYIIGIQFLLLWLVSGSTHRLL
Sequence (Q08289 whole entry partner): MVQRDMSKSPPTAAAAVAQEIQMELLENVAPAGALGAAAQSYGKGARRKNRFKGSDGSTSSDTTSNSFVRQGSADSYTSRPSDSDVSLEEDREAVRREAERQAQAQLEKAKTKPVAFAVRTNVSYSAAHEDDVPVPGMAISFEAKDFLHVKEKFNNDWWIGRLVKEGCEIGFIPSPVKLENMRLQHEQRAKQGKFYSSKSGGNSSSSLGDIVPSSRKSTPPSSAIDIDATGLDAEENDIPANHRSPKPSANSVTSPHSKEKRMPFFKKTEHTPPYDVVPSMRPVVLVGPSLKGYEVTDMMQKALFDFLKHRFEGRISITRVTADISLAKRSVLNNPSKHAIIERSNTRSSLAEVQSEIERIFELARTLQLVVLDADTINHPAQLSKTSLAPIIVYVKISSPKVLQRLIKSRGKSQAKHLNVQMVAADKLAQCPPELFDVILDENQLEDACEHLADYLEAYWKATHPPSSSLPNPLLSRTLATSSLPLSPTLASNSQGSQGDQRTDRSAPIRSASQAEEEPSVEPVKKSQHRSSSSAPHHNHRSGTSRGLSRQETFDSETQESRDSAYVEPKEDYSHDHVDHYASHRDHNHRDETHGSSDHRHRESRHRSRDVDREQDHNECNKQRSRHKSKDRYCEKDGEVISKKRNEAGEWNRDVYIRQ
test_description: FLIPR data, CAv1.2 channel blocking (Table 6)
Type: cell-based
condition_set: ratio closed/inactivated IC50
Please go through the items and note down their CAv1.2 IC50 Ratio closed/inact..
Numbers only.

Here is how some molecules turned out for CAv1.2 IC50 Ratio closed/inact..
molecule	study_target	CAv1.2 IC50 Ratio closed/inact.
Cn1nc(C(F)(F)F)cc1C(=O)N[C@H]1C[C@H](CC(C)(C)S(=O)(=O)c2cccc(C(F)(F)F)c2)C1	CAv1.2 (Homo sapiens, UniProt Q13936)	2.4
CC(C)([C@H]1C[C@H](NC(=O)c2ccc(C(F)(F)F)cn2)C1)S(=O)(=O)c1cccc(C(F)(F)F)c1	CAv1.2 (Homo sapiens, UniProt Q13936)	2.4
CC(C)([C@H]1C[C@@H](NC(=O)c2ccc(C(F)(F)F)cc2S(C)(=O)=O)C1)S(=O)(=O)c1cccc(OC(F)(F)F)c1	CAv1.2 (Homo sapiens, UniProt Q13936)	1.1
CC(C)(C1CC(CNC(=O)c2ccnc(C(F)(F)F)c2)C1)S(=O)(=O)c1cccc(C(F)(F)F)c1 (stereo not shown)	CAv1.2 (Homo sapiens, UniProt Q13936)	14.9
CC(C)([C@H]1C[C@H](NS(=O)(=O)c2ccc(C(F)(F)F)nc2)C1)S(=O)(=O)c1cc(F)cc(C(F)(F)F)c1	CAv1.2 (Homo sapiens, UniProt Q13936)	2.3

Provide CAv1.2 IC50 Ratio closed/inact. values for the following items, in order.
1. CC(C)(C[C@H]1C[C@H](NC(=O)c2ccc(OCC(F)(F)F)nc2)C1)S(=O)(=O)c1cccc(C(F)(F)F)c1
2. CC(C)([C@H]1C[C@H](NC(=O)c2ccc(F)c(Cl)c2)C1)S(=O)(=O)c1cc(F)cc(C(F)(F)F)c1
3. CC(C)([C@H]1C[C@@H](NC(=O)c2ccc(OCC(F)(F)F)nc2)C1)S(=O)(=O)c1cccc(C(F)(F)F)c1

Reply:
1: 4.3; 2: 4.3; 3: 2.8

Provide CAv1.2 IC50 Ratio closed/inact. values for the following items, in order.
1. CC(C)([C@H]1C[C@H](NS(=O)(=O)c2ccc(Cl)c(F)c2)C1)S(=O)(=O)c1cc(F)cc(C(F)(F)F)c1
2. CC(C)([C@H]1C[C@@H](NC(=O)c2ccnc(C(F)(F)F)n2)C1)S(=O)(=O)c1cccc(OC(F)(F)F)c1
3. CC(C)([C@H]1C[C@H](NS(=O)(=O)c2ccc(OC(F)(F)F)cc2)C1)S(=O)(=O)c1cc(F)cc(C(F)(F)F)c1
4. CC(C)([C@H]1C[C@@H](CNC(=O)c2ccc(Cl)c(OC(F)(F)F)c2)C1)S(=O)(=O)c1cccc(C(F)(F)F)c1
5. CC(C)(C[C@H]1C[C@@H](NC(=O)c2ccc(C(F)(F)F)cc2)C1)S(=O)(=O)c1cccc(C(F)(F)F)c1

Reply:
[2.6, 1.2, 3, 10.2, 4.7]

----------
study_target: T-type calcium channel (Homo sapiens, UniProt O43497)
test_description: T-type channel blocking, FLIPR data (Table 6)
condition_set: CAv3.1
parameter: pIC50
One number for each entry, as −log10 of the molar value.

Here is how some compounds turned out for pIC50.
compound	pIC50
CC(C)([C@H]1C[C@@H](NS(=O)(=O)c2ccc(F)c(Cl)c2)C1)S(=O)(=O)c1cc(F)cc(C(F)(F)F)c1 [Compound 599]	5.25
CC(C)([C@H]1C[C@@H](NS(=O)(=O)c2ccc(F)c(C(F)(F)F)c2)C1)S(=O)(=O)c1cccc(C(F)(F)F)c1 [Compound 628]	5.66
Cn1nc(C(F)(F)F)cc1C(=O)N[C@H]1C[C@@H](CC(C)(C)S(=O)(=O)c2cccc(C(F)(F)F)c2)C1 [Compound 738]	5.24
CC(C)([C@H]1C[C@H](CNc2ccc(Cl)c(F)c2)C1)S(=O)(=O)c1cccc(C(F)(F)F)c1 [Compound 751]	5.34
CC(C)([C@H]1C[C@H](NC(=O)c2ccnc(C(F)(F)F)c2)C1)S(=O)(=O)c1cccc(C(F)(F)F)c1 [Compound 672]	5.30

Provide pIC50 values for the following items, in order.
1. CC(C)(C1CC(CNC(=O)c2ccc(Cl)c(OC(F)(F)F)c2)C1)S(=O)(=O)c1cccc(C(F)(F)F)c1 (centres unmarked) [Compound 621]
2. CC(C)([C@H]1C[C@@H](NC(=O)c2ccc(F)c(Cl)c2)C1)S(=O)(=O)c1cc(F)cc(C(F)(F)F)c1 [Compound 590]

Reply:
5.83
5.16

Provide pIC50 values for the following items, in order.
1. CC(C)([C@H]1C[C@@H](NS(=O)(=O)c2ccc(C(F)(F)F)cc2Cl)C1)S(=O)(=O)c1cc(F)cc(C(F)(F)F)c1 [Compound 622]
2. CC(C)([C@H]1C[C@@H](NS(=O)(=O)c2ccc(C(F)(F)F)cc2)C1)S(=O)(=O)c1cccc(C(F)(F)F)c1 [Compound 624]
3. CC(C)([C@H]1C[C@H](C(=O)Nc2cc(C(F)(F)F)n[nH]2)C1)S(=O)(=O)c1cccc(C(F)(F)F)c1 [Compound 762]
4. CC(C)([C@H]1C[C@H](NS(=O)(=O)c2ccc(Cl)c(F)c2)C1)S(=O)(=O)c1cc(F)cc(C(F)(F)F)c1 [Compound 607]
5. O=S(=O)(c1cc(F)cc(C(F)(F)F)c1)[C@H]1C[C@@H](CNc2ccnc(C(F)(F)F)n2)C1 [Compound 651]
6. CC(C)([C@H]1C[C@H](NS(=O)(=O)c2ccc(OC(F)(F)F)cc2)C1)S(=O)(=O)c1cccc(C(F)(F)F)c1 [Compound 669]

Reply:
[5.31, 5.53, 5.58, 5.27, 5.04, 5.56]

Provide pIC50 values for the following items, in order.
1. CC(C)(C[C@H]1C[C@H](NC(=O)c2ccc(Cl)cn2)C1)S(=O)(=O)c1cccc(C(F)(F)F)c1 [Compound 720]
2. CC(C)([C@H]1C[C@@H](NS(=O)(=O)c2ccc(Cl)c(F)c2)C1)S(=O)(=O)c1cc(F)cc(C(F)(F)F)c1 [Compound 600]
3. CC(C)([C@H]1C[C@@H](C(=O)Nc2ccc(C(F)(F)F)nc2)C1)S(=O)(=O)c1cccc(C(F)(F)F)c1 [Compound 759]

Reply:
[5.35, 5.45, 5.64]

----------
study_target: human α1G T-type channels (Homo sapiens, UniProt O43497)
test_description: T-type calcium channel block, whole cell patch clamp, α1G
condition_set: HEK cells stably expressing human α1G; mainly non-inactivated protocol; values above 10,000 nM represented as 10000
Please go through the items and note down their IC50.
Answers are plain numbers, in µM.

Here is how some molecules turned out for IC50.
molecule	parameter	output_unit	experimental_result
O=S(=O)(N[C@H]1CC[C@@](F)(S(=O)(=O)c2cccc(C(F)(F)F)c2)CC1)c1cccc(C(F)(F)F)c1	IC50	µM	0.28
O=C(CNC[C@H]1CC[C@@H](S(=O)(=O)c2cccc(C(F)(F)F)c2)CC1)NCC(F)(F)F	IC50	µM	9.28
CS(=O)(=O)c1ccc(C(=O)N[C@H]2CC[C@H](S(=O)(=O)c3cccc(C(F)(F)F)c3)CC2)c(Cl)c1	IC50	µM	0.69

Ask: Request the reported IC50 associated with "CC(C)(C)S(=O)(=O)c1ccsc1C(=O)N[C@H]1CC[C@@H](S(=O)(=O)c2cccc(C(F)(F)F)c2)CC1"
Reply: 3.55

The reported numbers originate from patent US20120245137A1.
